Please go through the items and note down their IC50.
# tested-on: pseudo-kinase domain (JH2, amino-acids 536-812) of human Wild Type JAK2 (Homo sapiens, UniProt O60674, F794H/W659A/W777A)
# Construct: pseudo-kinase domain (JH2, amino-acids 536-812 with 3 surface mutations W659A, W777A, F794H); His (C)
# Sequence (O60674 536-812 W659A/W777A/F794H): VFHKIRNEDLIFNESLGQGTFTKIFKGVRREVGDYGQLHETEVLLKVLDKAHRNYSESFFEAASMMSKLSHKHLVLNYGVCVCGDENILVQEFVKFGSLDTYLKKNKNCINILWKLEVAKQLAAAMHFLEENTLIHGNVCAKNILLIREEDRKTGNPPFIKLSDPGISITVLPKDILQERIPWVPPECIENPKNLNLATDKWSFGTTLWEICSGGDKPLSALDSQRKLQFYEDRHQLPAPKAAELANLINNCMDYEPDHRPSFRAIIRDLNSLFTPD
# method-description: JAK2 LanthaScreen JH2-WT Binding Assay
# experimental-setup: JAK2 JH2-WT 0.145 nM, 50 nM tracer, 1 hour at 25° C.; read-out: JH2 BIND WT

// IC50 lookup, key: `COC(=O)N[C@@H]1CC[C@@H](n2c(=O)n(C)c3cnc(Nc4ccc5cccc(-c6cnn(C)c6)c5n4)cc32)C1`
0.01 to 0.1 µM

Also, `[2H]C([2H])([2H])n1c(=O)n([C@H]2C[C@H](C(C)(C)O)C2)c2cc(Nc3cc(-c4cnccc4C(F)(F)F)c4nc(C)c(-c5cnn(C(F)F)c5)n4n3)ncc21` please.
≤ 0.01 µM

Okay, and `COC(=O)Nc1cc(Nc2cc3c(cn2)n(C)c(=O)n3[C@@H]2CC[C@H](F)C2)cc(-c2cnn(C)c2)c1` ?
0.01 to 0.1 µM

Entry `COC(=O)N[C@@H]1CC[C@@H](n2c(=O)n(C)c3cnc(Nc4cc(NS(=O)(=O)C5CC(F)(F)C5)cc(C5CCOCC5)c4)cc32)C1` please
0.01 to 0.1 µM

And what about the molecule `[2H]C([2H])([2H])n1c(=O)n([C@@H]2CC[C@@H](NC(=O)OC)C2)c2cc(Nc3cc(C(C)(C)O)cc(-c4cnc(C(F)(F)F)s4)n3)ncc21` ?
≤ 0.01 µM

Next entry: `Cn1cc(-c2cc(NC(=O)OC3CCC3)cc(Nc3cc4c(cn3)n(C)c(=O)n4[C@@H]3CC[C@@H](NC(=O)OC4CCC4)C3)c2)cn1`
0.01 to 0.1 µM

Query `[2H]C([2H])([2H])n1c(=O)n([C@@H]2CC[C@@H](NC(=O)OC)C2)c2cc(Nc3cc(C(C)(C)O)cc(-c4ncc(C(F)(F)F)s4)n3)ncc21` next
≤ 0.01 µM

How about `COC(=O)N[C@@H]1CC[C@@H](n2c(=O)n(C)c3cnc(Nc4cccc(-c5ccc6ncccc6c5)n4)cc32)C1` ?
≤ 0.01 µM

Record: [2H]C([2H])([2H])n1c(=O)n([C@@H]2CC[C@@H](NC(=O)OC)C2)c2cc(Nc3cc(C(=O)N4CC5CC5(O)C4)c4cccc(C(F)(F)F)c4n3)ncc21 (stereo partly drawn)
≤ 0.01 µM

And `[2H]C([2H])([2H])n1c(=O)n([C@@H]2CC[C@@H](NC(=O)OC)C2)c2cc(Nc3ccc(OC)c(-c4ncc(C(F)(F)F)s4)n3)ncc21` ?
≤ 0.01 µM

What do you have for COC(=O)Nc1cc(Nc2cc3c(cn2)n(C)c(=O)n3C2CC3(CC(NS(=O)(=O)C4CC4)C3)C2)cc(-c2cnn(C)c2)c1 (stereo not drawn) ?
0.01 to 0.1 µM

Please answer likewise for `[2H]C([2H])([2H])n1c(=O)n([C@@H]2CC[C@@H](NC(=O)OC)C2)c2cc(Nc3cc(-c4cnccc4C(F)(F)F)c4c(n3)n(-c3cnn(C(F)F)c3)c(=O)n4C)ncc21`
≤ 0.01 µM

* * *

# tested-on: catalytic domain (JH1, amino acids 826-1132) of human JAK2 (Homo sapiens, UniProt O60674)
# Construct: catalytic domain (JH1, amino acids 826-1132) of human JAK2; FLAG (N); biotin (biotinylated)
# Sequence (O60674 826-1132): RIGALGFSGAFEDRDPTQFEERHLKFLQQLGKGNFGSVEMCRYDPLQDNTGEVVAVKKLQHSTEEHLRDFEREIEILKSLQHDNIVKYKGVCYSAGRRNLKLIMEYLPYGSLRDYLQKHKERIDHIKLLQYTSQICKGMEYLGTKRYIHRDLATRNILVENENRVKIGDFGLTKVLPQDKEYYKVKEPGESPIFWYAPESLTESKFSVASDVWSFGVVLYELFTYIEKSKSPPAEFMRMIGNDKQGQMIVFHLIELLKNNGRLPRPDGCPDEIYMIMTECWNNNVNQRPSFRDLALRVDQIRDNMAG
# method-description: JAK2 LanthaScreen JH1 Binding Assay
# experimental-setup: JAK2 JH1 1.5 nM, 50 nM tracer, 2 hours at 25° C.; read-out: JH1 BIND
# Description: Example A. JAK2 LanthaScreen JH1 Binding Assay JAK2 JH1 binding assay utilizes catalytic domain (JH1, amino acids 826-1132) of human JAK2 expressed as N-terminal FLAG-tagged, biotinylated protein in a baculovirus expression system (Carna Biosciences, Product #08-445-20N). The assay was conducted in black 384-well polystyrene plates in a final reaction volume of 20 μL. […] After incubation for 2 hours at 25° C., LanthaScreen signals were read on a PHERAstar FS plate reader (BMG LABTECH). […]
metric: IC50

# IC50 lookup, item COC(=O)N[C@@H]1CC[C@@H](n2c(=O)n(C)c3cnc(Nc4cccc(N5CCC(N)C5)n4)cc32)C1 (stereo partly drawn) [Example 64]
> 1000 nM

Then this molecule: [2H]C([2H])([2H])n1c(=O)n([C@@H]2CC[C@@H](NC(=O)OC)C2)c2cc(Nc3cccc(-n4cc(C(F)(F)F)cn4)n3)ncc21 [Example 108]
> 1000 nM

Quick one: COC(=O)N[C@@H]1CC[C@@H](n2c(=O)n(C)c3cnc(Nc4ccc5ncc(-c6cncn6C)n5n4)cc32)C1 [Example 38]
> 1000 nM

Then this molecule: COC(=O)Nc1cc(Nc2cc3c(cn2)n(C)c(=O)n3C2CC3CC2CN3C(C)=O)cc(-c2cnn(C)c2)c1 (stereo not drawn) [Example 40]
> 1000 nM

What do you have for [2H]C([2H])([2H])n1c(=O)n([C@@H]2CC[C@@](C)(NC(=O)C3CC3)C2)c2cc(Nc3cc(C(=O)N4CCOCC4)c4cccc(C(F)(F)F)c4n3)ncc21 [Example 116] ?
100 to 500 nM

Follow-up item: [2H]C([2H])([2H])n1c(=O)n([C@@H]2CC[C@](C)(NC(=O)C3CC3)C2)c2cc(Nc3cc(CO)c4nn(C)c(-c5cnn(C(F)(F)F)c5)c4n3)ncc21 [Example 117]
> 1000 nM

[2H]C([2H])([2H])n1c(=O)n([C@@H]2CC[C@@H](NC(=O)OC)C2)c2cc(Nc3cc(C(C)(C)O)cc(-c4cnc(C(F)(F)F)s4)n3)ncc21 [Example 95] ?
> 1000 nM

// next record COC(=O)Nc1cc(Nc2cc3c(cn2)n(C)c(=O)n3C2CCC(C)(NC(=O)OC)CC2)cc(-c2cnn(C)c2)c1 (stereo not drawn) [Example 42]
> 1000 nM

One more molecule: [2H]C([2H])([2H])n1c(=O)n([C@H]2CC[C@@](C)(NC(=O)C3CC3)CC2)c2cc(Nc3ccc4c(n3)c(-c3cnn(C(F)(F)F)c3)nn4CC(C)(C)O)ncc21 [Example 120]
> 1000 nM

What do you have for COC(=O)N[C@@H]1CC[C@@H](n2c(=O)n(C)c3cnc(Nc4cccc(-c5ccc6ncccc6c5)n4)cc32)C1 [Example 9] ?
> 1000 nM

Now give it for [2H]C([2H])([2H])n1c(=O)n([C@@H]2CC[C@@H](NC(=O)OC)C2)c2cc(Nc3cc(CN4CC(C(F)F)C4)cc(-c4ncc(C(F)(F)F)s4)n3)ncc21 [Example 101] too.
> 1000 nM

What do we get for [2H]C([2H])([2H])n1c(=O)n([C@@H]2CC[C@@H](NC(=O)OC)C2)c2cc(Nc3cc(C(=O)N4CC5CC5(O)C4)c4cccc(C(F)(F)F)c4n3)ncc21 (stereo partly drawn) [Example 10] ?
500 to 1000 nM

* * *

# tested-on: catalytic domain (JH1, amino acids 826-1132) of human JAK2 (Homo sapiens)
# Construct: catalytic domain (JH1, amino acids 826-1132) of human JAK2; FLAG (N); biotin (biotinylated); purchased Carna Biosciences 08-445-20N; host or cells: baculovirus expression system
# method-description: JAK2 LanthaScreen JH1 Binding Assay
# experimental-setup: JAK2 JH1 1.5 nM, 50 nM tracer, 2 hours at 25° C.; read-out: JH1 BIND
I'd appreciate it if you could supply IC50 values for the items below.

Query for catalytic domain (JH1, amino acids 826-1132) of human JAK2 (Homo sapiens): what IC50 does the record show for [2H]C([2H])([2H])n1c(=O)n([C@@H]2CC[C@@H](NC(=O)OC)C2)c2cc(Nc3ccc4cc(NC5CCC(F)(F)C5)cc(C(F)(F)F)c4n3)ncc21 (stereo partly drawn) ?
> 1000 nM

Then this compound: `COC(=O)N[C@@H]1CC[C@@H](n2c(=O)n(C)c3cnc(Nc4ccc5cccc(-c6cnn(C)c6)c5n4)cc32)C1`
> 1000 nM

Follow-up item: `COC(=O)N[C@@H]1CC[C@@H](n2c(=O)n(C)c3cnc(Nc4nc(-c5ccncc5)cs4)cc32)C1`
> 1000 nM

* * *

# tested-on: catalytic domain (JH1, amino acids 808-1132) of human JAK2 (Homo sapiens, UniProt O60674)
# Sequence (O60674 808-1132 limits assumed): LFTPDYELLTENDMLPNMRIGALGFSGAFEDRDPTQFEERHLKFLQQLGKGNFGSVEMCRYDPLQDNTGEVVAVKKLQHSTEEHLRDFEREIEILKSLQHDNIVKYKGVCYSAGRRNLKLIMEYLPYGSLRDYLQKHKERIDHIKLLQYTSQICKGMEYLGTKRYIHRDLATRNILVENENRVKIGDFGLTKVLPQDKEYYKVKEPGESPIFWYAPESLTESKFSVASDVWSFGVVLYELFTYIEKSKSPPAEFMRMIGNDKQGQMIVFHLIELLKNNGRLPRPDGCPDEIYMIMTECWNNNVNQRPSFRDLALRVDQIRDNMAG
# method-description: JAK2 HTRF Enzyme Activity Assay
# experimental-setup: ATP 30 µM, 60 minutes at 25° C.; read-out: V617F ENZ 30 UM
pIC50: −log10 of the molar value.
Give pIC50 for every item shown.

Which pIC50 value is on record for [2H]C([2H])([2H])n1c(=O)n([C@@H]2CC[C@@H](NC(=O)OC)C2)c2cc(Nc3cc(C(=O)N4CC5CC4CO5)c4cccc(C(F)(F)F)c4n3)ncc21 (stereo partly drawn) [Example 12] ?
< 6.00

Do the same for COC(=O)N[C@@H]1CC[C@@H](n2c(=O)n(C)c3cnc(Nc4cc(NC(=O)OC5CCC5)cc(-c5cnn(C)c5)c4)cc32)C1 [Example 56] please
< 6.00

Cool, now [2H]C([2H])([2H])n1c(=O)n([C@@H]2CC[C@@H](NC(=O)OC)C2)c2cc(Nc3cc(C(=O)N4CCOCC4)c(-c4cnn(C)c4)c(OC4CCC4)n3)ncc21 [Example 102]
< 6.00
